Data origin: BindingDB's records for doi:10.1021/cb900134c

The next entries give measured log10 of IC50 for Broad substrate specificity ATP-binding cassette transporter ABCG2 (Homo sapiens).
Please interpret these as log10 of IC50 where IC50 is in µM.

CO/C(=C\c1ccc(O)cc1)C(=O)N/C=C/c1ccc(OC)cc1 [US8470888, Botryllamide I] ... 1.37
CO/C(=C\c1ccc(O)cc1)C(=O)N/C=C/c1cc(Br)c(OC)c(Br)c1 [US8470888, Botryllamide A] ... 1.52

Request: Tell me log10 of IC50 of CO/C(=C/c1ccc(O)cc1)C(=O)N/C=C/c1cc(Br)c(OC)c(Br)c1 [Botryllamide B, 2] when tested on Broad substrate specificity ATP-binding cassette transporter ABCG2 (Homo sapiens).
Response: 1.05

Request: Tell me log10 of IC50 of CO/C(=C/c1ccc(O)cc1)C(=O)N/C=C/c1ccc(OC)cc1 [Botryllamide I, 9] when tested on Broad substrate specificity ATP-binding cassette transporter ABCG2 (Homo sapiens).
Response: 1.62

Request: Tell me log10 of IC50 of CO/C(=C\c1ccc(O)cc1)C(=O)N/C=C/c1cc(Br)c(O)c(Br)c1 [US8470888, Botryllamide G] when tested on Broad substrate specificity ATP-binding cassette transporter ABCG2 (Homo sapiens).
Response: 0.84

###

The following molecules are listed with their measured pIC50 values.
# targetOrTestSystem: Broad substrate specificity ATP-binding cassette transporter ABCG2 (Homo sapiens, UniProt Q9UNQ0)
# Sequence (Q9UNQ0 whole entry): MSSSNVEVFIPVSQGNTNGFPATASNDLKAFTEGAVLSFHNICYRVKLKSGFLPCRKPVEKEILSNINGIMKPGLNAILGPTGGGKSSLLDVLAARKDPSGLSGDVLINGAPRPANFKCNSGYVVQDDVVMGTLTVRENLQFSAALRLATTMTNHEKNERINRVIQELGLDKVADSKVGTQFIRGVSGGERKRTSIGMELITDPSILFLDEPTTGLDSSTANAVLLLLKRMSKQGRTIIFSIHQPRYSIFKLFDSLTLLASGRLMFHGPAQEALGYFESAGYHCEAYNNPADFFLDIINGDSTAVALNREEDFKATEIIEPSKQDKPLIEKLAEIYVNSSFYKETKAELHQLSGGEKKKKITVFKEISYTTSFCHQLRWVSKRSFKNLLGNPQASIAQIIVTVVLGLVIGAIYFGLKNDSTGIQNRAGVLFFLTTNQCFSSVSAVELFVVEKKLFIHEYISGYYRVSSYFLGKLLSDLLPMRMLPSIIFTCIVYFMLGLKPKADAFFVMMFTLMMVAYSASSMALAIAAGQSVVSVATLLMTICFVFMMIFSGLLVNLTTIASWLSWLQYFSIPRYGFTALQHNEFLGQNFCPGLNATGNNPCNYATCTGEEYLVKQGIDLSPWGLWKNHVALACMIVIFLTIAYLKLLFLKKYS
# log scale: pIC50 equals minus log10 of the concentration in mol/L

CO/C(=C\c1ccc(O)cc1)C(=O)N/C=C/c1ccc(O)cc1 [US8470888, Botryllamide F] ... 4.78
CO/C(=C/c1ccc(O)cc1)C(=O)N/C=C/c1ccc(OC)c(Br)c1 [Botryllamide D, 4] ... 4.79

Please examine the following record next.
Request: Hello, please tell me recorded pIC50 for this one: COc1ccc2c3c([nH]c2c1)[C@H](C=C(C)C)N1C(=O)[C@@H]2CCCN2C(=O)[C@@H]1C3 [Fumitremorgin C]
Response: 6.10
